PROCEDURE DETAILS: qHTS RealTime-Glo MT Cell Viability Assay in HepG2 cells - 40 hour (AID 1224870); also: nearly all actives have a fitted effect of over 50% in size
ASSAY SETUP: RealTime-Glo luminescence; series mostly up to 76.8 µM
Excerpt: National Center for Advancing Translational Sciences [NCATS] NIH Chemical Genomics Center [NCGC] U.S. Environmental Protection Agency [EPA] National Institutes of Environmental Health Sciences [NIEHS] National Toxicology Program [NTP] U.S. Food and Drug Administration [FDA] Measure of cell viability is critical in the cell-base assay. Analysis of cell viability is necessary for the characterization of cell responses to cytotoxic drugs and environmental stress. […]
Results filed as inconclusive are left out. Activity calls are given as the source filed them. Calls follow the shape of the dose curve; as a rule, active = well fitted cell-killing curve with a large enough effect in the repeat runs; inconclusive = weak or mixed curves, or effect the other way; inactive = flat fitted curve, though single readings scatter.

COMPOUND | activity change, negative = cytotoxic
OC[C@H]1O[C@@H](O[C@H]2[C@H](O)[C@@H](O)[C@H](O)O[C@@H]2CO)[C@H](O)[C@@H](O)[C@H]1O | inactive
ClC(Cl)Cl | inactive
CCCCNCCCC | inactive
C1CSCCS1 | inactive
C[C@]12C(=O)OC(=O)[C@H]1[C@H]1C=C[C@@H]2C1 | inactive
CN1C(=O)CC(c2ccccc2)C1=O (stereo not given) | inactive
CCCNC(C)C(=O)Nc1c(C)csc1C(=O)OC (stereo not given) | inactive
Cc1cccc(C)c1NC(=O)CN1CCCCCC1 | inactive
CCN(CC)C(=O)N(CC)CC | inactive
NS(=O)(=O)c1cc(-c2nn[nH]n2)c(NCc2cccs2)cc1Cl | inactive
O=C1CCCc2ccccc21 | inactive
CO[C@@]1(NC(=O)CSCC#N)C(=O)N2C(C(=O)O)=C(CSc3nnnn3C)CS[C@@H]21 | inactive
C=CC1CO1 (stereo not given) | inactive
OCCN1CCN(CCO)CC1 | inactive
O=C(O)c1cccc(Cl)c1Cl | inactive
Nc1ccc(Oc2ccc(N)c(N)c2)cc1 | inactive
Cc1nc(N)nc(N)c1-c1ccc(Cl)c(Cl)c1 | inactive
CCOc1ccc(NC(N)=O)cc1 | inactive
CC(C)Nc1nc(N)nc(Cl)n1 | inactive
CCOc1ccccc1N | inactive
O=C1Nc2ccc([N+](=O)[O-])cc2C1=O | inactive
CS(=O)(=O)c1ccc([C@@H](O)[C@@H](CF)NC(=O)C(Cl)Cl)cc1 | inactive
CCCN(CCC)C(=O)C(CCC(=O)O)NC(=O)c1ccccc1 (stereo not given) | inactive
CCCCNC(=S)NCCCC | inactive
C=O | inactive
CC/C=C\CCOC(=O)CCCCC | inactive
N#CSCC(=O)O | inactive
CCOC(=O)NCCC[Si](OCC)(OCC)OCC | inactive
CN(C)Cc1ccccc1 | inactive
CCN[C@H]1CN(CCCOC)S(=O)(=O)c2sc(S(N)(=O)=O)cc21 | inactive

###

PROCEDURE DETAILS: qHTS assay to identify small molecule antagonists of the sonic hedgehog signaling (Shh) pathway - cell viability counter screen (AID 1259367); also: nearly all actives have a fitted effect of over 55% in size
ASSAY SETUP: NIH/3T3 Gli1-Luc viability, CellTiter-Fluor, 24 h; series mostly up to 92.4 µM
Results filed as inconclusive are left out. Calls of active or inactive are those of the source. Calls follow the shape of the dose curve; as a rule, active = well fitted cell-killing curve with a large enough effect in the repeat runs; inconclusive = weak or mixed curves, or effect the other way; inactive = no such curve, though single readings can be large or run the other way.
Outcome codes: Y = active, N = inactive

MOLECULE | ASSIGNED CLASS
CN(C)CCOc1ccccc1Cc1ccccc1 | N
CCOc1ccc(NC(N)=O)cc1 | N
CCCN(CCC)C(=O)C(CCC(=O)O)NC(=O)c1ccccc1 (stereo not drawn) | N
CCCCCCCCOC(=O)CCCCCCCCC(=O)OCCCCCCCC | N
CCOc1ccc(OCC)c(Cl)c1 | N
O=C1CCC(C2CCCCC2)CC1 | N
Cc1cc(NS(=O)(=O)c2ccc(N)cc2)nc(C)n1 | N
CN1[C@@H]2CC[C@H]1CC(OC(=O)c1c[nH]c3ccccc13)C2 (stereo partly drawn) | N
CCCCOc1cc(C(=O)NCCN(CC)CC)c2ccccc2n1 | N
CCOc1ccc2nc(N)sc2c1 | N
O=C(C(Cl)Cl)N1CCOC12CCCCC2 | N
CCOC(=O)COc1ccc2c(c1)CC(NCC(O)c1cccc(Cl)c1)CC2 (stereo not drawn) | Y
CN1C(=O)CC(c2ccccc2)C1=O (stereo not drawn) | N
